Data provenance is paper PMC4955727.

Test system: P-gp (Homo sapiens)
Sequence (P08183 whole entry): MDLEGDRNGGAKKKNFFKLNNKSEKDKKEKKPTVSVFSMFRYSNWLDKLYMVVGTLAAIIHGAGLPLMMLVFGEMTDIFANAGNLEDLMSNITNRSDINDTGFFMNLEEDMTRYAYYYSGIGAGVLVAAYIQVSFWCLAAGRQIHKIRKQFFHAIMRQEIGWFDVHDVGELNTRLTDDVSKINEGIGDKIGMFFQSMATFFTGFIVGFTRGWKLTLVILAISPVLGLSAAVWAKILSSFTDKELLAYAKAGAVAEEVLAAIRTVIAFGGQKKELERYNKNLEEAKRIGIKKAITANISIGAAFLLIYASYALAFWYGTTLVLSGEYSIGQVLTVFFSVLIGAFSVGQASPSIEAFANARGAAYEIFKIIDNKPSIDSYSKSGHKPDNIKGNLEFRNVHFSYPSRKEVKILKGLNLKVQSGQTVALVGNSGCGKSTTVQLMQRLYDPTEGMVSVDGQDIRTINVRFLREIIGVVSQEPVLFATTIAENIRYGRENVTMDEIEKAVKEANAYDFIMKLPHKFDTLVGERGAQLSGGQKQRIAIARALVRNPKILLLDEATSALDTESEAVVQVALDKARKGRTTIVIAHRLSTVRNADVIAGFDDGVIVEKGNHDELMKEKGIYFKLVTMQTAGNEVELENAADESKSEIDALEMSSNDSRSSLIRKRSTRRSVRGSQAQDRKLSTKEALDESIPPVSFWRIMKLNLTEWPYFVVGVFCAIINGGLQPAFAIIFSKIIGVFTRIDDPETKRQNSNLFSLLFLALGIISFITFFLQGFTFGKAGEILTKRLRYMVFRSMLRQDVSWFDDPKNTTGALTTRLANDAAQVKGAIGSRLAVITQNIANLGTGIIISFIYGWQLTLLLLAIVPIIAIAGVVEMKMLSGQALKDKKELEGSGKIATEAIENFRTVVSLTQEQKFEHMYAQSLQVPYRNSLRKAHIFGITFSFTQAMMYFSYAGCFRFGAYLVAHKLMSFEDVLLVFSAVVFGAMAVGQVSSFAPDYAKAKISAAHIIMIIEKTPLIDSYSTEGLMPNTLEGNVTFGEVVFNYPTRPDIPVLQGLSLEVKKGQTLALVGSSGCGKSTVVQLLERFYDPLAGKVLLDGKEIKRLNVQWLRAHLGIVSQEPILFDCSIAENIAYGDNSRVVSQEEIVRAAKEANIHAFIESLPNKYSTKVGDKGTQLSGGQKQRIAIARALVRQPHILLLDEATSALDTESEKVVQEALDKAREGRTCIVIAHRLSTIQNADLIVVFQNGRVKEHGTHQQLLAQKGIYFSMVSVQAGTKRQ
Quantity kind: IC50

# lookup: O=C(O[C@@H]1Cc2c(O)cc(O)cc2O[C@@H]1c1ccc(O)c(O)c1)c1cc(O)c(O)c(O)c1 [(-)-Epicatechin 3-gallate] on P-gp (Homo sapiens), IC50 = 33 µM

----------
Test system: UniProtKB P08183
Protocol notes: Calcein-AM efflux assay in KB CH^R 8-5 cells
Condition details: human, KB CH^R 8-5 cells
Consider the following partition of reported inhibition at 10 min, 10 μM into named classes: A = under 20%, B = from 20% up to 50%, C = 50% and over

Textbook exercise: identify the category of the molecule given here, O=c1c(O)c(-c2ccc(O)c(O)c2)oc2cc(O)ccc12 [Fistein, Fisetin] , according to its measured value. A

# bin lookup: classify O=c1cc(-c2ccccc2)oc2cc(O)c(O)c(O)c12 [Baicalein] by its inhibition at 10 min, 10 μM A

Which category fits this record: O=c1cc(-c2ccc(O)cc2)oc2cc(O)cc(O)c12 [Apigenin] B

Lab note: sort COc1cc(O)c2c(=O)c(OC)c(-c3ccc(OC)c(OC)c3)oc2c1 [Retusin] into the matching inhibition at 10 min, 10 μM band. A

Please indicate the class for O=c1c(O)c(-c2cc(O)c(O)c(O)c2)oc2cc(O)cc(O)c12 [Myricetin] based on its inhibition at 10 min, 10 μM. C

Using the reported inhibition at 10 min, 10 μM, which band applies to Oc1ccc(-c2[o+]c3cc(O)cc(O)c3cc2O)cc1 [Pelargonidin] ? B

Bin? O=c1c(O)c(-c2ccc(O)cc2)oc2cc(O)cc(O)c12 [Kaempferol] B

Place this molecule in its band: O=c1c(O)cc([C@H]2Oc3cc(O)cc(O)c3C[C@H]2O)cc2c([C@H]3Oc4cc(O)cc(O)c4C[C@H]3O)cc(O)c(O)c12 [Theaflavine] C

Could you tell me which band O=c1cc(-c2ccc(O)c(O)c2)oc2cc(O)cc(O)c12 [Luteolin] belongs to? A

GET /class?item= C[C@@H]1O[C@@H](O[C@H]2[C@H](Oc3cc(O)c4c(c3)O[C@H](c3ccc(O)cc3)CC4=O)O[C@H](CO)[C@@H](O)[C@@H]2O)[C@H](O)[C@H](O)[C@H]1O [Naringin] C

Using the reported inhibition at 10 min, 10 μM, which band applies to COc1ccc(-c2oc3cc(O)cc(O)c3c(=O)c2O)cc1O [Tamarixetin] ? C

Which bin, given its inhibition at 10 min, 10 μM, does O=c1c(O)c(-c2ccc(O)cc2O)oc2cc(O)cc(O)c12 [Morin] occupy? B
